Molecular target: sigma-2 receptor (Rattus norvegicus, UniProt Q5U3Y7)
Sequence (Q5U3Y7 whole entry): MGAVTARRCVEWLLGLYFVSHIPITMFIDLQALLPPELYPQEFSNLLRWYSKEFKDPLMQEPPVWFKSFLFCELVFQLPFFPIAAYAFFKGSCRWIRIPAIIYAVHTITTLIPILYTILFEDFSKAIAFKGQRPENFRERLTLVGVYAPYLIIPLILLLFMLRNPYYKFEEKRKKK
pIC50: −log10 of the molar value.
Value Kind: pIC50

Query CCN(CC)CCNC(=O)c1ccc(F)cc1 yields pIC50 of < 6.00

====

Assay: Lipophilicity, shake flask 1-octanol/PBS pH 7.4
Type: physicochemical
Conditions: 1-octanol/phosphate-buffered saline
Value Kind: logP
API doc: respond with a numeric literal and nothing else, no unit.

Query CCN(CC)CCNC(=O)c1ccc([18F])cc1 [[^18F]-DAFBA] yields logP of 1.7

====

Target: sigma-1 receptor (Cavia porcellus, UniProt Q60492)
Sequence (Q60492 whole entry): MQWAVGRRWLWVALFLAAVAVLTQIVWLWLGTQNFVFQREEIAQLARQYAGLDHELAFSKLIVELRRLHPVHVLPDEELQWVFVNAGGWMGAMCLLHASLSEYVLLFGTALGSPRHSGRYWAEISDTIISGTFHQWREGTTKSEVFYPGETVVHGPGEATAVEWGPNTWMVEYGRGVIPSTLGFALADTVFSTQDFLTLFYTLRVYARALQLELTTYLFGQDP
pIC50: −log10 of the molar value.
Value Kind: pIC50

Query CCN(CC)CCNC(=O)c1ccc(F)cc1 [DAFBA] yields pIC50 of < 6.00
